Recorded MIC values (Escherichia coli SS) are given below.

compound	measured_quantity	value_measured
CC[C@H]1OC(=O)[C@H](C)C(=O)[C@H](C)[C@@H](O[C@@H]2O[C@H](C)C[C@H](N(C)C)[C@H]2O)[C@](C)(OCC#Cc2ccc(-c3ccccn3)s2)C[C@@H](C)C(=O)[C@H](C)[C@H]2NC(=O)O[C@@]21C [Example 1]	MIC	0.1 µg/mL

The recorded MIC for entry CC[C@H]1OC(=O)[C@H](C)C(=O)[C@H](C)[C@@H](O[C@@H]2O[C@H](C)C[C@H](N(C)C)[C@H]2O)[C@](C)(OCC#Cc2ccc(-c3ccncc3)s2)C[C@@H](C)C(=O)[C@H](C)[C@H]2NC(=O)O[C@@]21C [Example 3] equals 0.2 µg/mL

The recorded MIC for entry CC[C@H]1OC(=O)[C@H](C)[C@@H](O[C@H]2C[C@@](C)(OC)[C@@H](O)[C@H](C)O2)[C@H](C)[C@@H](O[C@@H]2O[C@H](C)C[C@H](N(C)C)[C@H]2O)[C@](C)(O)C[C@@H](C)C(=O)[C@H](C)[C@@H](O)[C@]1(C)O [Ery. A standard, Erythromycin A, reference compound] equals 0.78 µg/mL

The recorded MIC for entry CC[C@H]1OC(=O)[C@H](C)C(=O)[C@H](C)[C@@H](O[C@@H]2O[C@H](C)C[C@H](N(C)C)[C@H]2O)[C@](C)(OCC#Cc2ccc(-c3ccccn3)s2)C[C@@H](C)C(=O)[C@H](C)[C@H]2N(N)C(=O)O[C@]12C [Example 5] equals 0.2 µg/mL

The recorded MIC for entry CC[C@H]1OC(=O)[C@H](C)C(=O)[C@H](C)[C@@H](O[C@@H]2O[C@H](C)C[C@H](N(C)C)[C@H]2O)[C@](C)(OCC#Cc2ccc(-c3cccnc3)s2)C[C@@H](C)C(=O)[C@H](C)[C@H]2NC(=O)O[C@@]21C [Example 2] equals 0.1 µg/mL

====

Recorded MIC values (Staphylococcus aureus NCTC10649M) are given below.
Answer with a number only, understood to be in µg/mL.

Field: example entries. Status: answers known.
molecule	MIC (µg/mL)
CC[C@H]1OC(=O)[C@H](C)C(=O)[C@H](C)[C@@H](O[C@@H]2O[C@H](C)C[C@H](N(C)C)[C@H]2O)[C@](C)(OCC#Cc2ccc(-c3ccccn3)s2)C[C@@H](C)C(=O)[C@H](C)[C@H]2N(N)C(=O)O[C@]12C	0.1
CC[C@H]1OC(=O)[C@H](C)C(=O)[C@H](C)[C@@H](O[C@@H]2O[C@H](C)C[C@H](N(C)C)[C@H]2O)[C@](C)(OCC#Cc2ccc(-c3cccnc3)s2)C[C@@H](C)C(=O)[C@H](C)[C@H]2NC(=O)O[C@@]21C	0.05
CC[C@H]1OC(=O)[C@H](C)C(=O)[C@H](C)[C@@H](O[C@@H]2O[C@H](C)C[C@H](N(C)C)[C@H]2O)[C@](C)(OCC#Cc2ccc(-c3ccccn3)s2)C[C@@H](C)C(=O)[C@H](C)[C@H]2NC(=O)O[C@@]21C	0.1

Now take the following molecule into account.
The recorded MIC for entry CC[C@H]1OC(=O)[C@H](C)[C@@H](O[C@H]2C[C@@](C)(OC)[C@@H](O)[C@H](C)O2)[C@H](C)[C@@H](O[C@@H]2O[C@H](C)C[C@H](N(C)C)[C@H]2O)[C@](C)(O)C[C@@H](C)C(=O)[C@H](C)[C@@H](O)[C@]1(C)O [Ery. A standard, Erythromycin A, reference compound] equals 0.39

====

System: Candida albicans CCH 442
measured_quantity: MIC

Field: example entries. Status: answers known.
compound	assayed_system	value_measured
CC[C@H]1OC(=O)[C@H](C)[C@@H](O[C@H]2C[C@@](C)(OC)[C@@H](O)[C@H](C)O2)[C@H](C)[C@@H](O[C@@H]2O[C@H](C)C[C@H](N(C)C)[C@H]2O)[C@](C)(O)C[C@@H](C)C(=O)[C@H](C)[C@@H](O)[C@]1(C)O [Ery. A standard, Erythromycin A, reference compound]	Candida albicans CCH 442	> 100 µg/mL
CC[C@H]1OC(=O)[C@H](C)C(=O)[C@H](C)[C@@H](O[C@@H]2O[C@H](C)C[C@H](N(C)C)[C@H]2O)[C@](C)(OCC#Cc2ccc(-c3ccncc3)s2)C[C@@H](C)C(=O)[C@H](C)[C@H]2NC(=O)O[C@@]21C [Example 3]	Candida albicans CCH 442	> 100 µg/mL

Now take the following compound into account.
The recorded MIC for entry CC[C@H]1OC(=O)[C@H](C)C(=O)[C@H](C)[C@@H](O[C@@H]2O[C@H](C)C[C@H](N(C)C)[C@H]2O)[C@](C)(OCC#Cc2ccc(-c3cccnc3)s2)C[C@@H](C)C(=O)[C@H](C)[C@H]2NC(=O)O[C@@]21C [Example 2] equals > 100 µg/mL
